Data origin: the supplement of paper PMC8728848

# assayed_system: Fuc(a1-2)Gal(b1-4)[Fuc(a1-3)]GlcNAc
# assay_details: glycan array binding signal (z-score within array); higher = stronger binding
# setup_conditions: glycan notation: IUPAC condensed, linker removed
The entries come from a sample that favours the strongest signals as a whole.
metric: glycan array binding signal (z-score)
A bare number is all that is needed in reply.

Sample records with glycan array binding signal (z-score):
## Input Need glycan array binding signal (z-score), item EfCBM33A (Enterococcus faecalis), Q838S1 (protein) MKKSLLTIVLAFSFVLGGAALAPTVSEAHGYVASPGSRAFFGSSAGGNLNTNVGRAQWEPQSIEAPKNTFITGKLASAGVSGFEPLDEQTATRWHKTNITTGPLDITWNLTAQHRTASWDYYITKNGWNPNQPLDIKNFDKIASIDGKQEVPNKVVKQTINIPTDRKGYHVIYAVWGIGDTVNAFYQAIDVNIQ
## Output 0.633

## Input Need glycan array binding signal (z-score), item X56-1 (Clostridium perfringens), P26831 (protein) MGSSHHHHHHSSGLVPRGSHMASDPNRIIATYISNRQDAPTGNPDNIFDNNASTELVYKNPNRIDVGTYVGVKYSNPITLNNVEFLMGANSNPNDTMQKAKIQYTVDGREWIDLEEGVEYTMPGAIKVENLDLKVRGVRLIATEARENTWLGVRDINVNKKEDSNSGVEF
## Output 0.085

## Input Need glycan array binding signal (z-score), item CV-2L (Chromobacterium violaceum), Q7NX84 (protein) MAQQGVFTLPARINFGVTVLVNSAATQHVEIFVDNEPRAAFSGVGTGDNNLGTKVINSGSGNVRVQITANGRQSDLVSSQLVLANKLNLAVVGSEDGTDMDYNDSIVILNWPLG
## Output 0.928

## Input Need glycan array binding signal (z-score), item Protein L(B1-B4) (Finegoldia magna), Q51912 (protein) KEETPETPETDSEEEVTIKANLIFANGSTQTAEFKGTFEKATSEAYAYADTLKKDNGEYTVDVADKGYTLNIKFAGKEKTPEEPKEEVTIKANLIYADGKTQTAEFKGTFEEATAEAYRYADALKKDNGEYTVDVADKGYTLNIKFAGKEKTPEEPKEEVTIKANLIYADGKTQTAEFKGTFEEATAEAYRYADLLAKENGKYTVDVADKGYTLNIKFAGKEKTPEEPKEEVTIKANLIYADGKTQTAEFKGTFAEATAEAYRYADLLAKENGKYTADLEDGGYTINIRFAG
## Output -0.142

## Input Need glycan array binding signal (z-score), item Epa15 (Candida glabrata) (protein) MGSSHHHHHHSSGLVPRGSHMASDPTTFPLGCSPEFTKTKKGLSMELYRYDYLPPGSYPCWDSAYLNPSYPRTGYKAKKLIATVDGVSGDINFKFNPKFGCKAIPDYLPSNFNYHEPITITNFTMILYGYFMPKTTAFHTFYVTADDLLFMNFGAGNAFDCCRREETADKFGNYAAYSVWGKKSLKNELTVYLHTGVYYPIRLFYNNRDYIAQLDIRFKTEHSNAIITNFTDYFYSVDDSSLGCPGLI
## Output -0.361

Next:
## Input Need glycan array binding signal (z-score), item LecB LY19 (Pseudomonas aeruginosa) (protein) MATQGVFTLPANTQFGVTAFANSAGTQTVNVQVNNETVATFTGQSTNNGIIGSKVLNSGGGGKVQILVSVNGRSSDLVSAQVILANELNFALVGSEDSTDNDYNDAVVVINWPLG
## Output 2.54
